Cited source for all entries: PubChem BioAssay (NCI)

System: HOP-62 NSCLC
Assay: NCI tumour cell line growth inhibition, 48 h; in the data active = GI50 below about 0.43 µM; inactive = the rest
Form entry, call: pick from active, inactive

Past entries and their recorded results:
>  <compound>
C[C@@H]1COCCN1c1nc(-c2cnc(N)cc2C(F)F)nc(N2[C@H](C)COC[C@@H]2C)n1

>  <assayTarget>
HOP-62 NSCLC

>  <groupLabel>
active

$$$$
>  <compound>
CN(C)C(=S)NN=C(c1ccccn1)c1ccccn1

>  <assayTarget>
HOP-62 NSCLC

>  <groupLabel>
active

$$$$

Task: How did this test come out for COc1ccc(C2=CC(c3cc(OC)c(OC)c(OC)c3)NC(=O)N2)cc1OC (centres undefined) ?
Result: inactive

Task: How did this test come out for CCCCCCCCCCCCCCCC(=O)OCC1OC(n2cnc3c(=S)nc(N)[nH]c32)C(OC(=O)CCCCCCCCCCCCCCC)C1OC(=O)CCCCCCCCCCCCCCC (centres undefined) ?
Result: inactive

Task: How did this test come out for C=C1C(=O)O[C@H]2[C@H]1CC/C(CNS(=O)(=O)c1ccc3ccccc3c1)=C\CC[C@@]1(C)O[C@@H]21 ?
Result: inactive

Task: How did this test come out for COc1cc(C(=O)/C=C/c2c(-c3ccc(F)cc3)nc3sc(C)cn23)cc(OC)c1OC ?
Result: inactive

Task: How did this test come out for NC(N)=N/N=C/c1c(-c2cccs2)nc2sccn12 ?
Result: inactive

Task: How did this test come out for O=[N+]([O-])c1cc(O)c(O)cc1-c1cn2ccsc2n1 ?
Result: inactive

Task: How did this test come out for COc1ccc(Nc2ncccc2/C=C/C(=O)c2cc(OC)c(OC)c(OC)c2)cc1 ?
Result: inactive

---

System: UACC-62 melanoma
Experiment: NCI tumour cell line growth inhibition, 48 h
Would you mind telling me the reported TGI of each entry?
One number for each entry, in µM.

Recorded results for 2 compounds are shown here.
>  <compound>
CC1(C)CN(c2ccccc2)C(=O)C1OC(=O)[C@@]1(C)C[C@@H]2C=C[C@H]1C2 (stereo not given in full)

>  <u>
µM

>  <reportedValue>
41.4

$$$$
>  <compound>
Cn1cc(NC(=O)c2cc(NC(=O)Nc3cc(C(=O)Nc4cc(C(=O)NCCC(=N)N)n(C)c4)n(C)c3)cn2C)cc1C(=O)NCCC(=N)N

>  <u>
µM

>  <reportedValue>
53.2

$$$$

Record CC(=O)NC1=C(C)C(=O)c2c(nc3n2CCC3O)C1=O (stereo not given) , field TGI: 38.2

---

Would you mind telling me the reported TGI of each entry?
Test system: ACHN renal
Assay: NCI tumour cell line growth inhibition, 48 h

Recorded results for 3 molecules are shown here.
>  <molecule>
COC(=O)/C=C\C(C#N)(C#N)N=Cc1ccc(C)s1

>  <TGI>
3.66 µM

$$$$
>  <molecule>
C1#Cc2ccccc2OCCOc2ccccc2C#Cc2ccccc2OCCOc2ccccc21

>  <TGI>
37.9 µM

$$$$
>  <molecule>
O=C(Nc1c(Cl)cc([N+](=O)[O-])cc1Cl)C(=O)C1C(=O)NC(=S)NC1=O

>  <TGI>
> 100 µM

$$$$

Consider the following items and state reported TGI for each.
1. CC1(C)[C@@H](Cn2cnc3c(=O)[nH]c(N)nc32)CC[C@@]1(C)CO
2. OCC(O)C1OC2CC1Nc1ccccc1N2 (stereo not given)
3. COc1ccc(Oc2nc3ccc(C(F)(F)F)cc3nc2-c2ccccc2)cc1
4. Nc1ccc(-c2nc3ccccc3[nH]2)c(O)c1

Result:
["> 100 µM", "> 100 µM", "> 100 µM", "82.9 µM"]

Consider the following items and state reported TGI for each.
1. N#Cc1cccc(C(=O)c2cnn(-c3ccc(F)cc3)c2N)c1
2. CCN(CC)CCOc1ccc(Nc2ncc3cc(-c4c(Cl)cccc4Cl)c(=O)n(CCOC)c3n2)cc1
3. Cn1ccnc1C(c1nccn1C)C(C)(C)[N+](=O)[O-]
4. O=C(O)CNS(=O)(=O)c1ccc(NC(=O)c2ccc(F)cc2)cc1
5. O=c1[nH]c2ccccc2nc1/C=C(\O)C(F)F
6. O=c1c2ccccc2n2nnc3ccc(NCCCNCCNCCCNc4ccc5nnn6c7ccccc7c(=O)c4c56)c1c32

Result:
1: > 25 µM; 2: 5.72 µM; 3: > 100 µM; 4: > 100 µM; 5: > 100 µM; 6: > 18 µM

Consider the following items and state reported TGI for each.
1. O=C(/C=C/c1ccc(-c2ccccc2)cc1)NCc1ccc(C(=O)NCCc2c[nH]c3ccccc23)cc1
2. CN(C)/C=C/c1nnnn1-c1ccc(Cl)cc1
3. CNc1nc(C)c(-c2nc(Nc3cccc(S(N)(=O)=O)c3)ncc2F)s1
4. COc1ccc(C(=C(I)c2ccccc2)c2ccc(OC)cc2)cc1
5. Cc1cc(NS(=O)(=O)c2ccc(NC(=O)c3cccc4c(NNc5ccc(S(=O)(=O)N=C(N)N)cc5)c5ccccc5nc34)cc2)no1
6. CCNC(=O)/C=C/CCC#Cc1ccc(-c2ccc(-c3cccs3)s2)s1
7. CC(NC1=NCCO1)c1cccc([N+](=O)[O-])c1 (stereo not given)
8. COc1ccc(/C=C2\CC3C4CC=C5C[C@@H](O)CC[C@]5(C)C4CC[C@]3(C)\C2=N\O)cc1OC (stereo not given in full)

Result:
1: > 100 µM; 2: > 100 µM; 3: 11.7 µM; 4: > 100 µM; 5: > 100 µM; 6: > 100 µM; 7: > 100 µM; 8: 36.9 µM
